Target: Beta-3 adrenergic receptor (Homo sapiens, UniProt P13945)
Sequence (P13945 whole entry, looked up): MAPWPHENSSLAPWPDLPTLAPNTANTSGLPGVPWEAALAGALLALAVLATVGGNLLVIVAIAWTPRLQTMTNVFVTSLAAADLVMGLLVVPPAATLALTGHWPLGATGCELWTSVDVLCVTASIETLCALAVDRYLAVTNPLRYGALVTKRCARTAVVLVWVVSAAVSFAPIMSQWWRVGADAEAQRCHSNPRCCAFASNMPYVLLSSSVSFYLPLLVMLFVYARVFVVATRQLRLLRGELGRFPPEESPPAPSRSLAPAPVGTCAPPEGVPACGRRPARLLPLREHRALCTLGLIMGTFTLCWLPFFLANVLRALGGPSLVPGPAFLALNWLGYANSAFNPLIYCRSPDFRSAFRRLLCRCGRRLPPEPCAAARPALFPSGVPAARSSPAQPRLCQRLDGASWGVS
Experiment: Agonist activity at human beta-3 adrenergic receptor expressed in CHO cells assessed as cAMP levels at 100 nM relative to isoproterenol
Type: functional, cell-based
Settings: filed as agonist
measured.attribute: Activity (%)

INSERT INTO measurements (compound, assay_target, measured_attribute, unit_string, measured_value) VALUES
  ('CC(Cc1ccc(Oc2ccc(C(=O)O)cc2)cc1)NC[C@H](O)COc1cccc2[nH]c(=O)n(C)c12 (stereo partly specified)', 'Beta-3 adrenergic receptor (Homo sapiens, UniProt P13945)', 'Activity', '%', 84),
  ('CC(Cc1ccc(Oc2ccc(C(N)=O)cn2)cc1)NC[C@H](O)COc1cccc2[nH]c(=O)[nH]c12 (stereo partly specified)', 'Beta-3 adrenergic receptor (Homo sapiens, UniProt P13945)', 'Activity', '%', 97),
  ('CC(Cc1ccc(Oc2ccc(C#N)cn2)cc1)NC[C@H](O)COc1cccc2[nH]c(=O)n(C)c12 (stereo partly specified)', 'Beta-3 adrenergic receptor (Homo sapiens, UniProt P13945)', 'Activity', '%', 83),
  ('CC(Cc1ccc(Oc2ccc(C(N)=O)cn2)cc1)NC[C@H](O)COc1cccc2[nH]c(=O)n(C)c12 (stereo partly specified)', 'Beta-3 adrenergic receptor (Homo sapiens, UniProt P13945)', 'Activity', '%', 87),
  ('CC(Cc1ccc(Oc2ccc(C(=O)O)cc2)cc1)NC[C@H](O)COc1cccc2[nH]c(=O)[nH]c12 (stereo partly specified)', 'Beta-3 adrenergic receptor (Homo sapiens, UniProt P13945)', 'Activity', '%', 99),
  ('CC(Cc1ccc(Oc2ccc(C#N)cn2)cc1)NC[C@H](O)COc1cccc2[nH]c(=O)[nH]c12 (stereo partly specified)', 'Beta-3 adrenergic receptor (Homo sapiens, UniProt P13945)', 'Activity', '%', 88);

Value source: ChEMBL document CHEMBL1139684
